Each record here notes measured inhibition.
Assay Target: Tyrosine-protein kinase JAK3 (Homo sapiens) (UniProt P52333)
Sequence (P52333 whole entry): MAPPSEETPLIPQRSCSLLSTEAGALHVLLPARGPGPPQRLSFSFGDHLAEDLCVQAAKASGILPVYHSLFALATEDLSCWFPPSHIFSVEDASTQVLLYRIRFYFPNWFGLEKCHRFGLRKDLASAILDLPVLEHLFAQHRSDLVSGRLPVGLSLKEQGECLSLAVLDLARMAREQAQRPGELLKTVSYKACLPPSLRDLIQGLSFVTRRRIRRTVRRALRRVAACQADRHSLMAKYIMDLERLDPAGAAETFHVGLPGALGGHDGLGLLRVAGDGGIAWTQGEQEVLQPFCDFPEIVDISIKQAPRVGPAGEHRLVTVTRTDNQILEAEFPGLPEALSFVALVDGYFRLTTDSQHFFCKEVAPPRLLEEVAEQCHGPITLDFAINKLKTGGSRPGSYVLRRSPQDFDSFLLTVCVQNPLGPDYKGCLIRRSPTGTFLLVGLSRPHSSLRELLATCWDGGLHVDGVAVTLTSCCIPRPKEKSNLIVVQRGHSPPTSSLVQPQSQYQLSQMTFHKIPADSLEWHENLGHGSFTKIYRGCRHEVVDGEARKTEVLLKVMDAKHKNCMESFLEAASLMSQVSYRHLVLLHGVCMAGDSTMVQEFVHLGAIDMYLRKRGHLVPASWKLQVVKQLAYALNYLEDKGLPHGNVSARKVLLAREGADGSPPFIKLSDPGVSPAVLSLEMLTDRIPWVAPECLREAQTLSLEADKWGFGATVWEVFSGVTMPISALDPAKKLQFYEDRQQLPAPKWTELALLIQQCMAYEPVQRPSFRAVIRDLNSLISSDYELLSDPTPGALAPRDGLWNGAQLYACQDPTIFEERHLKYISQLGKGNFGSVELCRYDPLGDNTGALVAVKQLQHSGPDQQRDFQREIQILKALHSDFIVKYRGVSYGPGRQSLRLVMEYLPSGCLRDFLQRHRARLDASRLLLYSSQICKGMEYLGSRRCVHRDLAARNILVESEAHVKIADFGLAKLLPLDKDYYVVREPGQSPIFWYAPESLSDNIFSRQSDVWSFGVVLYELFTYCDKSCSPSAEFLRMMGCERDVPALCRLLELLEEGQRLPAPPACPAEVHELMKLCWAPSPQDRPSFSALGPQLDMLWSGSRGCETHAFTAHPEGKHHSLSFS
Experimental Parameters: at 1 µM
Description: GSK_PKIS: JAK3 mean inhibition at 1 uM [Nanosyn]
Recorded Metric: inhibition (%)

Smiles Code	Recorded Metric	Reported
COc1cc(/C=N/Nc2ncnc3c2cnn3C(C)C)ccc1O	inhibition	3.25
CCn1c(-c2nonc2N)nc2c(C#CC(C)(C)O)nc(OCCNC)cc21	inhibition	-0.89
ON=C1CCc2cc(-c3nc(C4CCNCC4)[nH]c3-c3ccncc3)ccc21	inhibition	3.17
Oc1cccc(-c2nc(-c3ccccc3)[nH]c2-c2ccncc2)c1	inhibition	9.09
CCOc1nccc2c1nc(-c1nonc1N)n2CC	inhibition	4.71
Cc1cc(-c2ccccn2)cc(C)c1/C=C/c1cncc(-c2nn[nH]n2)c1	inhibition	0.72

----------
Assay Target: Macrophage colony-stimulating factor 1 receptor (Homo sapiens) (UniProt P07333)
Sequence (P07333 whole entry): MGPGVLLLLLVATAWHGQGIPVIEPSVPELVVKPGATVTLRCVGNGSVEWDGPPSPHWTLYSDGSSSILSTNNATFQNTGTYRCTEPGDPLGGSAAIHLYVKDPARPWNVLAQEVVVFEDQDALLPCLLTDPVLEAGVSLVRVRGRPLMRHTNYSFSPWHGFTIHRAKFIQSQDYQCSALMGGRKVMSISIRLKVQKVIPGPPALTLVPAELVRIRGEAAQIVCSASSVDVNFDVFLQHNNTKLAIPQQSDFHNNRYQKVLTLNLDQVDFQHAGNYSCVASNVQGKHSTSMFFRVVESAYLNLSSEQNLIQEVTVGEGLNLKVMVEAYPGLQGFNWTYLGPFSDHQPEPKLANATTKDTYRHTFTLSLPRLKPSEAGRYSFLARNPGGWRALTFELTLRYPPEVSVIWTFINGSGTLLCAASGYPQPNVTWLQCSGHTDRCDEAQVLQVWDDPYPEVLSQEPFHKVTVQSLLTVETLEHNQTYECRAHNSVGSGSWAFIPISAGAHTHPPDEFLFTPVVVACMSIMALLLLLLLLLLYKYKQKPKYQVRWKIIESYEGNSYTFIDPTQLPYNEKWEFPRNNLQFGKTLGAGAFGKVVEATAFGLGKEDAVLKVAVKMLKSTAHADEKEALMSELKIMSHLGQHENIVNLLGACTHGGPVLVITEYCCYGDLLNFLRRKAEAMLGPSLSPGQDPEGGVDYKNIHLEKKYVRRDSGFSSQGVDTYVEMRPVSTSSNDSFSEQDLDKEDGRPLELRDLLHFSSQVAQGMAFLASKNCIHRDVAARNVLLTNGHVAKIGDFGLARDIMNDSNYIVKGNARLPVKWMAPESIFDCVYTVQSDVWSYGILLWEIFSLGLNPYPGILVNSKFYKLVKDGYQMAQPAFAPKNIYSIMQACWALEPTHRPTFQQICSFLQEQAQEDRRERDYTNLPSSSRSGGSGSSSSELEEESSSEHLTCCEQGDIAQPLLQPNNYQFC
Experimental Parameters: at 1 µM
Each record here notes measured inhibition.

Molecule	Unit Label	inhibition
Cc1ccc2c(-c3ccnc(Nc4ccc5c(c4)OCCO5)n3)c(-c3ccc(C(F)(F)F)cc3)nn2n1	%	14.6
CCOc1nccc2c1nc(-c1nonc1N)n2CC	%	2.68
CCCN1CCCC(c2ccc(Nc3nc(Nc4cc(F)ccc4C(N)=O)c4cc[nH]c4n3)c(OC)c2)C1 (stereo not given)	%	78.6
COc1cc2ncn(-c3cc(OCc4ccccc4S(C)(=O)=O)c(C#N)s3)c2cc1OC	%	33.2
Nc1nccc(C#Cc2cncnc2Nc2ccc(OCc3cccc(F)c3)c(Cl)c2)n1	%	5.18

----------
Assay Target: Tyrosine-protein kinase receptor UFO (Homo sapiens) (UniProt P30530);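 also: values are mean percent inhibition of AXL from the GSK PKIS screen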
Sequence (P30530 whole entry): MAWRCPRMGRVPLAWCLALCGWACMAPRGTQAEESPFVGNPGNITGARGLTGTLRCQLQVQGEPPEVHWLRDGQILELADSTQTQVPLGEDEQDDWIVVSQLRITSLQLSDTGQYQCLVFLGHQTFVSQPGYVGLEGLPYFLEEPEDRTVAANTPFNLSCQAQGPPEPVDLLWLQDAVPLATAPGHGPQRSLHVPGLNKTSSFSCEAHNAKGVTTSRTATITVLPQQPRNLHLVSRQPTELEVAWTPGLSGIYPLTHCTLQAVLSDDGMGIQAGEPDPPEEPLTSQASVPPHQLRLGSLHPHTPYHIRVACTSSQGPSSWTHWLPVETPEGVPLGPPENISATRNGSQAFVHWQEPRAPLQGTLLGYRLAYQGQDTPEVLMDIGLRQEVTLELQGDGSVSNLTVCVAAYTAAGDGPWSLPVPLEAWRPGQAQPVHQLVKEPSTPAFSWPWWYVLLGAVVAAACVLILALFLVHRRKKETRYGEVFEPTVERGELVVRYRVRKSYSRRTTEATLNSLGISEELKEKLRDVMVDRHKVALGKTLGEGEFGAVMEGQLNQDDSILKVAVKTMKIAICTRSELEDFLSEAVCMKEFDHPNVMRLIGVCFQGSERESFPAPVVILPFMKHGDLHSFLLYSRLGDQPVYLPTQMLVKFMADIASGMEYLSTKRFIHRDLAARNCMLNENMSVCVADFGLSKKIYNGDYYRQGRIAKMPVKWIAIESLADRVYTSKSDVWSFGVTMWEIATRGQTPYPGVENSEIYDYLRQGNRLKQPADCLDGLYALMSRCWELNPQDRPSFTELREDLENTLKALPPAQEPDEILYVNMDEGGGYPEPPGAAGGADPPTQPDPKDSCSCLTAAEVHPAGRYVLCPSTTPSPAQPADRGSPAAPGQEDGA
Experimental Parameters: at 0.1 µM
Each record here notes measured inhibition.

Compound	Unit Label	inhibition
Cc1ccc2c(-c3ccnc(Nc4cccc(C(F)(F)F)c4)n3)c(-c3ccccc3)nn2n1	%	-5.69
[O-][S+]1CCN(Cc2ccc(-c3ccc4ncnc(Nc5ccc(OCc6ccccc6)c(Cl)c5)c4c3)o2)CC1	%	-2.39
COc1cccc(-n2ncc3c(N/N=C/c4ccc(S(C)(=O)=O)cc4)ncnc32)c1	%	-1.8
CCn1c(-c2nonc2N)nc2ccc(F)cc21	%	-7.61
NC(=O)c1sc(-n2cnc3ccccc32)cc1OCc1ccccc1Br	%	-6.14
CN(C)C(=O)O[C@@H]1CN[C@@H](C#Cc2cc3ncnc(Nc4ccc(OCc5cccc(F)c5)c(Cl)c4)c3s2)C1	%	-0.96
COc1cc2ncnc(Nc3ccc4c(cnn4Cc4ccccc4)c3)c2cc1OC	%	-3.79
CS(=O)(=O)Nc1cccc(-c2ccc3c(NC(=O)C4CC4)n[nH]c3c2)c1	%	0.1
COc1cc2ncnc(Nc3ccc(C)c(O)c3)c2cc1OC	%	-6.97
CC(C)c1ccc2c(c1)NC(=O)/C2=N/Nc1ccc(S(N)(=O)=O)cc1	%	-0.26
COC(=O)c1cncc(/C=C/c2c(C)cc(O)cc2C)c1	%	-3.94
Oc1cccc(-c2nc(-c3ccccc3)[nH]c2-c2ccncc2)c1	%	-4.03
CS(=O)(=O)CCNCc1nc(-c2ccc3ncnc(Nc4ccc(OCc5cccc(C(F)(F)F)c5)cc4)c3c2)cs1	%	-5.39
CN(C)C(=O)O[C@H]1CN[C@H](C#Cc2cc3ncnc(Nc4ccc(OCc5cccc(F)c5)c(Cl)c4)c3s2)C1	%	-3.4
CCCN1CCCC(c2ccc(Nc3nc(Nc4cc(F)ccc4C(N)=O)c4cc[nH]c4n3)c(OC)c2)C1 (stereo not given)	%	9.62
Cc1nc(-c2ccccc2)n2nc(NCCCN3CCOCC3)ncc12	%	-1.08
Cc1ccc(NC(=O)CC2CC2)cc1-c1ccc(C(=O)NCC2CC2)cc1	%	-3.14
OCc1ccc(-c2nc(-c3ccccn3)c(-c3ccc4c(c3)OCO4)[nH]2)cc1	%	-6.62
COc1cccc(-n2nc(C)c3c(N/N=C(\C)c4ccncc4)ncnc32)c1	%	-2.14
O=C1Nc2ccc(-c3cccnc3)cc2C1=Cc1cc(Br)c(O)c(Br)c1	%	-3.55

----------
Each record here notes measured inhibition.
Tested on: Epidermal growth factor receptor (Homo sapiens), P00533 [L858R,T790M]
Sequence (P00533 whole entry T790M/L858R, looked up): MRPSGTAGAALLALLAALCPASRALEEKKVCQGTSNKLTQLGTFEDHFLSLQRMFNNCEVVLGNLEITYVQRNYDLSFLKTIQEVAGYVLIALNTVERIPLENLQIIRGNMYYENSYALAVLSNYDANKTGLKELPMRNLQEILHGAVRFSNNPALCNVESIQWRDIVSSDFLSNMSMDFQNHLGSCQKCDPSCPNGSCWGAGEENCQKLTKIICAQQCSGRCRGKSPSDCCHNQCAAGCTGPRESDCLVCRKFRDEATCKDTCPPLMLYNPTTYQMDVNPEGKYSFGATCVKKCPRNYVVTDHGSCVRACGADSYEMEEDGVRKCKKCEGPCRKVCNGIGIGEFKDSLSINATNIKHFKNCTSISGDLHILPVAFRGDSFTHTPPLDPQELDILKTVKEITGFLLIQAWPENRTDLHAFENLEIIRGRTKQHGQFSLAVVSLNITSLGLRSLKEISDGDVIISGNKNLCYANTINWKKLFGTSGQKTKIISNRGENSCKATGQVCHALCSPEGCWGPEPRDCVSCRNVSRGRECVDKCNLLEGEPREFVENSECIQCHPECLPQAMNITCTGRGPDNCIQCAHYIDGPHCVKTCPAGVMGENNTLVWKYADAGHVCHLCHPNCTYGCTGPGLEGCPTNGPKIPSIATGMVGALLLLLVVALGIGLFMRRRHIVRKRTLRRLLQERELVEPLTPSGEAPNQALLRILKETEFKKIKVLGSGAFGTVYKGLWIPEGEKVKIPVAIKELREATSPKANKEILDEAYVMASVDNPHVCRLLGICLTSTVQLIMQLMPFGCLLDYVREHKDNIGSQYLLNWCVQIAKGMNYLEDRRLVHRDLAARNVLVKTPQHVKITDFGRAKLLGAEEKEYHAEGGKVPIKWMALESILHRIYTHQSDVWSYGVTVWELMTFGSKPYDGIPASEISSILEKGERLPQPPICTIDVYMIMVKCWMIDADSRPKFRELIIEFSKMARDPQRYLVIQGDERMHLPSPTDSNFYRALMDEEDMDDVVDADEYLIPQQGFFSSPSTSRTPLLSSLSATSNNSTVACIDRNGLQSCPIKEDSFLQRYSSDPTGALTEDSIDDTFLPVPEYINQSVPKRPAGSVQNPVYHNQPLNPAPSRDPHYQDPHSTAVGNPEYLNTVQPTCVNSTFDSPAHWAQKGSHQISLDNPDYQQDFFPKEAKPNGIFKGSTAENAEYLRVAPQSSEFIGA
Experimental Parameters: at 1 µM
Recorded Metric: inhibition (%)

Smiles Code	Reported
Cc1ccc2c(c1)/C(=N/Nc1ccc(S(N)(=O)=O)cc1)C(=O)N2	-2.96
Cc1ccc(O)cc1Nc1ccnc2ccc(S(C)(=O)=O)cc12	5.18
C[C@@H](Oc1cc(-n2cnc3ccc(OCC4CCN(C)CC4)cc32)sc1C(N)=O)c1ccccc1C(F)(F)F	18.6
COc1cccc(-n2nc(C)c3c(N/N=C(\C)c4ccncc4)ncnc32)c1	-1.32
CCS(=O)(=O)c1ccc(OC)c(Nc2ncc(-c3cccc(OC)c3)o2)c1	0.18
COc1cccc(-n2ncc3c(N/N=C/c4ccc(C)cc4)ncnc32)c1	2.55
Oc1cccc(-c2nc(-c3ccccc3)[nH]c2-c2ccncc2)c1	4.01
ON=C1CCc2cc(-c3nc(C4CCNCC4)[nH]c3-c3ccncc3)ccc21	0.18
Nc1ccc(C#Cc2cncnc2Nc2ccc(OCc3cccc(F)c3)c(Cl)c2)cc1	0.42
O=C1Nc2ccc(-c3cccnc3)cc2C1=Cc1cc(Br)c(O)c(Br)c1	5.14

----------
Assay Target: cGMP-dependent protein kinase 1 (Homo sapiens)
Experimental Parameters: at 0.1 µM
Description: GSK_PKIS: PRKG1 mean inhibition at 0.1 uM [Nanosyn]
Recorded Metric: inhibition (%)

Smiles Code	Reported
COC(=O)c1cncc(/C=C/c2c(C)cc(O)cc2C)c1	3.3
CN(C)CCCn1c(-c2nonc2N)nc2cnccc21	3.68
NS(=O)(=O)c1ccc(NC=C2C(=O)Nc3ccc4ncsc4c32)cc1	6.31
Cc1ccc(C(=O)NC2CC2)cc1-c1ccc2[nH]ncc2c1	-1.78
COc1cc2ncnc(Nc3ccc4c(cnn4Cc4ccccc4)c3)c2cc1OC	1.58
COC(=O)c1ccc2c(c1)C(=Cc1cc(Br)c(O)c(Br)c1)C(=O)N2	2.45
Nc1nccc(-c2c(-c3ccc(F)cc3)ncn2CCCN2CCOCC2)n1	4.04
C[C@@H](Oc1cc(-n2cnc3ccc(OC[C@@H](O)CO)cc32)sc1C(N)=O)c1ccccc1Cl	-2.27

----------
Assay Target: Macrophage colony-stimulating factor 1 receptor (Homo sapiens) (UniProt P07333)
Experimental Parameters: at 0.1 µM
Each record here notes measured inhibition.
Recorded Metric: inhibition

Smiles Code	Recorded Metric	Reported
C[C@@H](Oc1cc(-n2cnc3ccc(OC[C@@H](O)CO)cc32)sc1C(N)=O)c1ccccc1Cl	inhibition	0.22%
CS(=O)(=O)CCNCc1nc(-c2ccc3ncnc(Nc4ccc(OCc5cccc(C(F)(F)F)c5)cc4)c3c2)cs1	inhibition	0.88%
C[C@@H](Oc1cc(-n2cnc3ccc(OCC4CCN(C)CC4)cc32)sc1C(N)=O)c1ccccc1C(F)(F)F	inhibition	-4.84%
O=S(=O)(CCOCc1ccc(-c2ccc3ncnc(Nc4ccc(OCc5cccc(F)c5)c(Cl)c4)c3c2)o1)c1ccccc1	inhibition	-1.86%
COc1ccc(-c2nn3ncccc3c2-c2ccnc(Nc3cccc(C(F)(F)F)c3)n2)cc1	inhibition	2.47%
COC(=O)c1cncc(/C=C/c2c(C)cc(O)cc2C)c1	inhibition	6.96%
COc1cc2ncn(-c3cc(OCc4ccccc4S(C)(=O)=O)c(C#N)s3)c2cc1OC	inhibition	6.26%
CCS(=O)(=O)c1ccc(OC)c(Nc2ncc(-c3cccc(OC)c3)o2)c1	inhibition	26.4%
NS(=O)(=O)c1cccc(Nc2cc(-c3ccc(F)cc3)n[nH]2)c1	inhibition	3.25%
COC(=O)c1ccc2c(c1)C(=Cc1cc(Br)c(O)c(Br)c1)C(=O)N2	inhibition	2.87%
COc1cc2ncnc(Nc3ccc4c(cnn4Cc4ccccc4)c3)c2cc1OC	inhibition	-1.86%
c1ccc(Cc2nc3ccc(Nc4ncnc5ccccc45)cc3[nH]2)cc1	inhibition	4.66%
NS(=O)(=O)c1ccc(Nc2cc(-c3cccc(O)c3)n[nH]2)cc1	inhibition	5.17%
NC(=O)c1cccc(Nc2nccc(Nc3cccc(F)c3)n2)c1	inhibition	22.1%
CCOc1nccc2c1nc(-c1nonc1N)n2CC	inhibition	0.65%
COC(=O)Nc1nc2cc(Oc3ccc(NC(=O)Nc4cccc(Br)c4)cc3)ccc2[nH]1	inhibition	19.9%
COc1cccc(-n2ncc3c(N/N=C/c4ccc(S(C)(=O)=O)cc4)ncnc32)c1	inhibition	6.39%
NC(=O)c1sc(-n2cnc3ccccc32)cc1OCc1ccccc1Br	inhibition	-0.73%
FC(F)(F)c1ccc(-c2nn3ncccc3c2-c2ccnc(Nc3ccc4c(c3)OCCO4)n2)cc1	inhibition	0.29%
Nc1nccc(-c2c(-c3ccc(F)cc3)ncn2CCCN2CCOCC2)n1	inhibition	2.72%

----------
Assay Target: Tyrosine-protein kinase Lck (Homo sapiens) (UniProt P06239);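 also: reported values are mean percent inhibition of Lck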
Sequence (P06239 2-509 limits assumed): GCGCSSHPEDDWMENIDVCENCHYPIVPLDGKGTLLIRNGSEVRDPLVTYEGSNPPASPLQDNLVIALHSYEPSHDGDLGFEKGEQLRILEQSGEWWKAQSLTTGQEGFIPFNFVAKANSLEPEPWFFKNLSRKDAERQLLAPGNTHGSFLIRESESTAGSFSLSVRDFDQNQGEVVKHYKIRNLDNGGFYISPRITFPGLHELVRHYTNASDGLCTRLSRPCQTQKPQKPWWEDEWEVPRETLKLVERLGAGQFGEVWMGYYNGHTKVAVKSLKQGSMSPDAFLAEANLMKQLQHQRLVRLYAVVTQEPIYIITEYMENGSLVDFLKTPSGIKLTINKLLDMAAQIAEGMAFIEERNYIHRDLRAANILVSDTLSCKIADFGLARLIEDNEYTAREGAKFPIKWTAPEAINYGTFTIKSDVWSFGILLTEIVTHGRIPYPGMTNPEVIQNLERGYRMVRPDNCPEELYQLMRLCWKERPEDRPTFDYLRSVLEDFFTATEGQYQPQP
Experimental Parameters: at 0.1 µM
Label rule, in plain words: inhibition of 2% and up is 1, under 2% is 0.

Smiles Code	Assay Target	Class Name
C[C@@H](Oc1cc(-n2cnc3ccc(OCC4CCN(C)CC4)cc32)sc1C(N)=O)c1ccccc1C(F)(F)F	Tyrosine-protein kinase Lck (Homo sapiens) (UniProt P06239)	1
COc1cc(Nc2nccc(-c3cnn4ncccc34)n2)cc(OC)c1	Tyrosine-protein kinase Lck (Homo sapiens) (UniProt P06239)	1
CN(C)C(=O)O[C@@H]1CN[C@@H](C#Cc2cc3ncnc(Nc4ccc(OCc5cccc(F)c5)c(Cl)c4)c3s2)C1	Tyrosine-protein kinase Lck (Homo sapiens) (UniProt P06239)	0
c1ccc(Cc2nc3ccc(Nc4ncnc5ccccc45)cc3[nH]2)cc1	Tyrosine-protein kinase Lck (Homo sapiens) (UniProt P06239)	1
COC(=O)c1ccc2c(c1)C(=Cc1cc(Br)c(O)c(Br)c1)C(=O)N2	Tyrosine-protein kinase Lck (Homo sapiens) (UniProt P06239)	1
NC(=O)c1cccc(Nc2nccc(Nc3cccc(F)c3)n2)c1	Tyrosine-protein kinase Lck (Homo sapiens) (UniProt P06239)	1
CN(C)c1cc2c(Nc3ccc4c(cnn4Cc4ccccc4)c3)ncnc2cn1	Tyrosine-protein kinase Lck (Homo sapiens) (UniProt P06239)	1
NS(=O)(=O)c1cccc(Nc2cc(-c3ccc(F)cc3)n[nH]2)c1	Tyrosine-protein kinase Lck (Homo sapiens) (UniProt P06239)	0
COc1cccc(-n2nc(C)c3c(N/N=C(\C)c4ccncc4)ncnc32)c1	Tyrosine-protein kinase Lck (Homo sapiens) (UniProt P06239)	0
NS(=O)(=O)c1ccc(NC=C2C(=O)Nc3ccc4ncsc4c32)cc1	Tyrosine-protein kinase Lck (Homo sapiens) (UniProt P06239)	1
Cc1cc(O)cc(C)c1/C=C/c1cncc(C(=O)N(C)C)c1	Tyrosine-protein kinase Lck (Homo sapiens) (UniProt P06239)	1
COc1ccc(-c2nn3ncccc3c2-c2ccnc(Nc3cccc(C(F)(F)F)c3)n2)cc1	Tyrosine-protein kinase Lck (Homo sapiens) (UniProt P06239)	1
Nc1nccc(-c2c(-c3ccc(F)cc3)nn3cc(C(F)(F)F)ccc23)n1	Tyrosine-protein kinase Lck (Homo sapiens) (UniProt P06239)	1
